Values were extracted from ChEMBL document CHEMBL3112444.

experiment: Cytotoxicity against human BE(2)-C cells assessed as growth inhibition after 72 hrs by MTT assay; assay type: functional
Measured parameter: GI50 (µM)
Your answer should be a plain number; it is taken to be in µM.

# example entries with known answers
Structure notation | Display unit | GI50
O=C(NCc1ccc(-c2ccccc2)cc1)c1cc(Br)c(Br)[nH]1 | µM | 4.2
O=C(NCCc1ccc(O)cc1)c1cc(Br)c(Br)[nH]1 | µM | 16

Sure, the documented GI50 for O=C(NCc1ccccc1)c1cc(Br)c(Br)[nH]1 is 4.8

Sure, the documented GI50 for O=C(NCc1ccc(Cl)cc1)c1cc(Br)c(Br)[nH]1 is 32

Sure, the documented GI50 for O=C(NCC(c1ccccc1)c1ccccc1)c1cc(Br)c(Br)[nH]1 is 16

Sure, the documented GI50 for O=C(NCc1ccc(-c2ccccc2)cc1)c1ccc[nH]1 is 11

Sure, the documented GI50 for O=C(NCc1ccc(Cl)c(Cl)c1)c1cc(Br)c(Br)[nH]1 is 24
